test system: OVCAR-4; assay: NCI tumour cell line growth inhibition, 48 h
Calls of active or inactive are those of the source. No stated cut-off is given here; in the data, active = GI50 up to about 1.1 µM and inactive = higher.
Quick reference for GI50 among some molecules

>>> reported("COc1cc(OC(=O)c2c(O)cc(O)c(O)c2C)cc(C)c1C(=O)Oc1cc(C)c(C(=O)O)c(O)c1")
"> 100 µM (inactive)"
>>> reported("N#Cc1c(-c2ccccc2)c(C#N)c(=S)n(C2OC(CO)C(O)C(O)C2O)c1N (stereo unspecified)")
"> 100 µM (inactive)"
>>> reported("COC1(c2ccc(Cl)cc2)SC=C(C)n2c1noc2=O (stereo unspecified)")
"63.8 µM (inactive)"
>>> reported("O/N=C1\\CCc2nonc2\\C1=N/Nc1ccccc1")
"> 100 µM (inactive)"
>>> reported("O=C(CC1(O)CCCCC1)OC1CCCC1")
"> 100 µM (inactive)"

Consider the record given below.
The molecule listed as O=C(O)c1cc(=O)c2cc(C(=O)c3cccs3)c(Cl)c(Cl)c2o1 has a reported GI50 of > 100 µM (inactive)

---

system: HCC 2998; experiment: NCI tumour cell line growth inhibition, 48 h
Active and inactive are the calls of the source. No stated cut-off is given here; in the data, active = GI50 up to about 1.1 µM and inactive = higher.
Your answer must be one of the following: true (active), false (inactive)

As a guide, the following entries are already answered.
>>> assigned_label("CCCCCCCCCCCCc1ccsc1-c1ccc(-c2ccc(-c3sccc3CCCCCCCCCCCC)s2)s1")
"false"
>>> assigned_label("CCOC(=O)C1Cc2c(cc3c4c(cccc24)N(C(C)=O)C3)N(C)C1 (centres undefined)")
"false"
>>> assigned_label("O=C1[C@@H]2C(c3c(Cl)cccc3Cl)=NO[C@@H]2C(=O)N1c1ccc(Cc2ccc(N3C(=O)[C@H]4C(c5c(Cl)cccc5Cl)=NO[C@H]4C3=O)cc2)cc1")
"false"
>>> assigned_label("O=C(NC(Nc1ccc(F)c(Cl)c1)(C(F)(F)F)C(F)(F)F)OCc1ccccc1")
"false"
>>> assigned_label("O=C1O/C(=C(\\Br)c2ccc([N+](=O)[O-])cc2)c2ccccc21")
"false"

Ask | Hello, I am checking results. What call was entered for Nc1nc(N)c(N=O)c(Nc2ccc(I)cc2)n1 ?
Reply | false

Ask | Hello, I am checking results. What call was entered for O=C(Cc1ccccc1)NN1C(=O)/C(=C\c2ccc([N+](=O)[O-])cc2)S/C1=N\c1ccccc1 ?
Reply | false

Ask | Hello, I am checking results. What call was entered for COc1c(C)c(C/C=C(\C)CCCCO)c(OC)c2ccccc12 ?
Reply | false

---

system: DU-145; assay: NCI tumour cell line growth inhibition, 48 h
Calls of active or inactive are those of the source. Cut-off read from the data, not from the text of the source: active = GI50 up to about 1.1 µM and inactive = higher.
METRIC: GI50

Answered examples (5):
>>> reported("CSc1ccc(C(=O)C(=O)c2ccc(SC)s2)s1")
"> 10 µM (inactive)"
>>> reported("CC#CC(O)(C(=O)OC1CCCN(C)C1)C1=CC=CCC1 (stereo unspecified)")
"> 100 µM (inactive)"
>>> reported("CC1(C)CC(=O)c2c(nc(SSc3nc4c(c(-c5ccccc5)c3C#N)C(=O)CC(C)(C)C4)c(C#N)c2-c2ccccc2)C1")
"> 10 µM (inactive)"
>>> reported("O=C1C2=Cc3ccccc3CCN2c2ccccc21")
"> 75.3 µM (inactive)"
>>> reported("Cn1c2c(c3ccccc31)CC(=S)N1CCCC(CC2O)C1 (stereo unspecified)")
"> 100 µM (inactive)"

The compound listed as CNC(=O)c1nn[nH]c1O has a reported GI50 of > 100 µM (inactive)

Values from ChEMBL document CHEMBL1201862
